Assay: Cytotoxicity against human BE(2)-C cells assessed as cell proliferation at 6.25 uM incubated overnight by XTT assay relative to control
Format: cell-based
Conditions: read-out: Activity
MEASURE: viability at 6.25 µM (%)

molecule=COc1ccc(S(=O)(=O)N(CCCC(=O)C2CCCCCC2)C2CCCCC2)cc1 u=% value_observed=97.5
molecule=CN([C@@H](Cc1ccc(OS(=O)(=O)c2cccc3cnccc23)cc1)C(=O)N1CCN(c2ccccc2)CC1)S(=O)(=O)c1cccc2cnccc12 u=% value_observed=65.7
molecule=O=C(CCCN(c1ccccc1)S(=O)(=O)c1ccc(OC(F)(F)F)cc1)C1CCCC1 u=% value_observed=92.4
molecule=COc1ccc(S(=O)(=O)N(CCCC(=O)c2ccc(F)cc2)c2ccccc2)cc1 u=% value_observed=56.1
molecule=COc1ccc(S(=O)(=O)N(CCCC(=O)C2CCCCC2)c2ccccc2)cc1 u=% value_observed=107
molecule=COc1ccc(S(=O)(=O)N(CCCC(C)=O)c2ccccc2)cc1 u=% value_observed=106
molecule="COc1ccc(S(=O)(=O)N(CCCC(O)c2ccc(F)cc2)c2ccccc2)cc1 (centres undefined)" u=% value_observed=76.3
molecule="COc1ccc(S(=O)(=O)N(CCCC(=O)C2C3CC4CC(C3)CC2C4)c2ccccc2)cc1 (centres undefined)" u=% value_observed=96.7
molecule=O=C(CCCN(c1ccccc1)S(=O)(=O)c1ccc(Oc2ccccc2)cc1)C1CCCCCC1 u=% value_observed=95.5
